TARGET DESC: EGFR (Homo sapiens, UniProt P00533, DEL746-750)
Construct: host or cells: HCC827
Sequence (P00533 with tags, fused parts or gaps DEL746-750): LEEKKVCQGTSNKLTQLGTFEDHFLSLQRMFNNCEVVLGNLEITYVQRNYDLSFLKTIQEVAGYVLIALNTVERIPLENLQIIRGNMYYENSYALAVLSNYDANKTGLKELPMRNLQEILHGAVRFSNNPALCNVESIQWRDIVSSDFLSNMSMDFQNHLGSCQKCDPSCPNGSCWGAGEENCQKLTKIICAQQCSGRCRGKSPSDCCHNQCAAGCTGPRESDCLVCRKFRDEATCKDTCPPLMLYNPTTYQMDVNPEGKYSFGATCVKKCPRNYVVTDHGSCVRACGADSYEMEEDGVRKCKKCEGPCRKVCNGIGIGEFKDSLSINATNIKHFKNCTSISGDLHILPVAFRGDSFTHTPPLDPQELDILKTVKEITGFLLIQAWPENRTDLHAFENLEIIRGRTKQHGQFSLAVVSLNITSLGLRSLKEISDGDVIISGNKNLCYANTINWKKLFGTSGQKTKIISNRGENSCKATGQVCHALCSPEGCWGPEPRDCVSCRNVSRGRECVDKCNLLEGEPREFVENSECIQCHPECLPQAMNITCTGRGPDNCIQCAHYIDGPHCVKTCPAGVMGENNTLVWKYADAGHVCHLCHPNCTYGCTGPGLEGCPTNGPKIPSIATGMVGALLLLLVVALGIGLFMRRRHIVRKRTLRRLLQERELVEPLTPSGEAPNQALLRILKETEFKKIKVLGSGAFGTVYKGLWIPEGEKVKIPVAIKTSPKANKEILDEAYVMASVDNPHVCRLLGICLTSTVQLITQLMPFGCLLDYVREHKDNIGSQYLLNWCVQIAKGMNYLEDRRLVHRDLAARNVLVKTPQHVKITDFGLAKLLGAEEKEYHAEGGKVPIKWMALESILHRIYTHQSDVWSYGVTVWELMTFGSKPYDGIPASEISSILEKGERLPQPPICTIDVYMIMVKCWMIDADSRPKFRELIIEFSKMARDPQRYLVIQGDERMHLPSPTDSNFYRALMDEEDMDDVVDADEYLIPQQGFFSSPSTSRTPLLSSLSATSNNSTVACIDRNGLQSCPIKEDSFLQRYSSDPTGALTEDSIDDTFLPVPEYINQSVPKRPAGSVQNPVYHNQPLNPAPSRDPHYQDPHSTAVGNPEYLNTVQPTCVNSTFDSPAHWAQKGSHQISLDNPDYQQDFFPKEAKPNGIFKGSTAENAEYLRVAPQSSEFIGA
ASSAY REMARKS: EGFR PROTAC In Cell Western assay in HCC827
Format: cell-based
SETUP CONDITIONS: HCC827, Table 4; HCC827, EGFR degradation, 16 hours of incubation
QUANTITY MEASURED: Dmax

> print(dat)
                                   compound      result
1  COc1cc(N2CCN(C(=O)CN3CCN(c4ccc(NC5CCC(=O)NC5=O)cc4)CC3)CC2)ccc1Nc1ncc(Br)c(Nc2ccccc2C(C)=O)n1 (stereo not drawn)  70 to 100%
2  COc1cc(N2CCN(C(=O)CN3CCC(c4ccc(NC5CCC(=O)NC5=O)cc4)CC3)CC2)ccc1Nc1ncc(C(F)(F)F)c(Nc2ccc(F)cc2F)n1 (stereo not drawn)       < 50%
3  COc1cc(N2CCN(C(=O)CN3CCC(c4ccc(NC5CCC(=O)NC5=O)cc4)CC3)C(C)C2)ccc1Nc1ncc(Cl)c(Nc2ccccc2C(C)=O)n1 (stereo not drawn)   50 to 70%
